target: PDL1, Q9NZQ7
Sequence (Q9NZQ7 whole entry): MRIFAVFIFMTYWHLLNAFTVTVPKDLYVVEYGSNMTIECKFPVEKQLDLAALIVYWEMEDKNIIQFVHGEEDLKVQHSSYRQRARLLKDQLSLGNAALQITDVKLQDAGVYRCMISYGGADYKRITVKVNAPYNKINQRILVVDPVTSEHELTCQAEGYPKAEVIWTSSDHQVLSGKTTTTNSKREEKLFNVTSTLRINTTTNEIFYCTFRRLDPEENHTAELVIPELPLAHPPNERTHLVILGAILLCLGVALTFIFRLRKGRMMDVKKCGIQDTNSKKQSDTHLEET
assay_metric: binding in a display sort

binder: d8r1_design_ppi_306_dldesign_0_cycle0_af2pred (protein) DAARRAKAEALLKQAKEDFKKFAEQAKKEGPSVLKALKNINESVAEHLKKLDPELGEELKKYGEELIKKAEE
value: not found (inactive)
//
binder: d8r1_design_ppi_1481_dldesign_0_cycle0_af2pred (protein) SSEANDAALKEGMALASATLAQARALIAAGGAAAAAAAAALAEAAVARLRELGAKYPQRAASFAALGEALRREVARLAA
value: not found (inactive)
//
binder: d8r1_design_ppi_1265_dldesign_0_cycle0_af2pred (protein) SETEEGAKALIRAAANAAKYLAKKYGELAKKLAELVKKALEAGPEEAVKYLEEAAALAKEAGQKTGGTKAFAALQATLKKAAELKKK
value: not found (inactive)
